- SUBJECT OF TEST: Amine oxidase [flavin-containing] B (Homo sapiens)
- Sequence (P27338 whole entry, canonical isoform): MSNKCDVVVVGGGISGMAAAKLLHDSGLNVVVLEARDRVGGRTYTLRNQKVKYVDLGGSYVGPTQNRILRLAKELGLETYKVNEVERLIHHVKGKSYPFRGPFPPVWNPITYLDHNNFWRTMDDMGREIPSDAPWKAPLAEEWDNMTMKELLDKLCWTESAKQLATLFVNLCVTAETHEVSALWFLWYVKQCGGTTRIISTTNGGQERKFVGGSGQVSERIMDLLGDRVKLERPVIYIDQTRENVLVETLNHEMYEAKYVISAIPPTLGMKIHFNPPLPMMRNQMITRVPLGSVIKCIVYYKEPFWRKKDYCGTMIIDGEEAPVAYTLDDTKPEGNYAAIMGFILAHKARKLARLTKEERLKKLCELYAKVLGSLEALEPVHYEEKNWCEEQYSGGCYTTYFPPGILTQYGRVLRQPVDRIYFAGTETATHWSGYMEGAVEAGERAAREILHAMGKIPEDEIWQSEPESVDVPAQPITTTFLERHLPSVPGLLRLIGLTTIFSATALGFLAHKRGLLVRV
- EXPERIMENT SUMMARY: SSAO Activity Assay: Amine oxidase activity of recombinant hSSAO, hMAO-A, and hMAO-B isoforms are measured using the MAO-Glo assay kit (Promega, V1402). Ten nL test compounds (with DMSO as vehicle, 0.1% v/v for hSSAO, hMAO-A and hMAO-B) were added into assay plates by Echo, and pre-incubated with 5 μL of enzyme for 30 mins at room temperature before the addition of 5 μL of luminogenic substrate. The substrate concentration is 40 μM for human recombinant SSAO, 40 μM for human recombinant MAO-A, and 4 μM for human recombinant MAO-B. The hSSAO and hMAO-A assays were conducted in the MAO-A reaction buffer in the kit, and the MAO-B assay was conducted in the MAO-B reaction buffer. Oxidation of the substrate was conducted for 1 hr, before the addition of detecting reagent according the manufacture's protocol. The IC50 value of the tested compounds was calculated by fitting the dose response curve using a 4-parameter non-linear regression routine.
QUANTITY MEASURED: IC50

Take a look at these entries with their results.
C[C@@H](CS(=O)(=O)c1ccc(OC/C(=C/F)CN)cc1)N1CCCCC1=O ... < 10 µM
C[C@H](CN1CCCCC1=O)CS(=O)(=O)c1ccc(OC/C(=C/F)CN)cc1 ... > 30 µM
CC1(C(=O)N2CCN(CS(=O)(=O)c3ccc(OC/C(=C/F)CN)cc3)C(=O)C2)CCC1 ... < 10 µM
CC(C)C(=O)N1CCC(C)(COCS(=O)(=O)c2ccc(OC/C(=C/F)CN)cc2)CC1 ... < 10 µM

Moving on to the next compound.
Memo: `CC1(COCS(=O)(=O)c2ccc(OC/C(=C/F)CN)cc2)CCOCC1` , reported IC50: < 10 µM

====

- SUBJECT OF TEST: Amine oxidase [flavin-containing] B (Homo sapiens)
- EXPERIMENT SUMMARY: SSAO Activity Assay: Amine oxidase activity of recombinant hSSAO, hMAO-A, and hMAO-B isoforms are measured using the MAO-Glo assay kit (Promega, V1402). Ten nL test compounds (with DMSO as vehicle, 0.1% v/v for hSSAO, hMAO-A and hMAO-B) were added into assay plates by Echo, and pre-incubated with 5 μL of enzyme for 30 mins at room temperature before the addition of 5 μL of luminogenic substrate. The substrate concentration is 40 μM for human recombinant SSAO, 40 μM for human recombinant MAO-A, and 4 μM for human recombinant MAO-B. The hSSAO and hMAO-A assays were conducted in the MAO-A reaction buffer in the kit, and the MAO-B assay was conducted in the MAO-B reaction buffer. Oxidation of the substrate was conducted for 1 hr, before the addition of detecting reagent according the manufacture's protocol. The IC50 value of the tested compounds was calculated by fitting the dose response curve using a 4-parameter non-linear regression routine.
pIC50: −log10 of the molar value.
QUANTITY MEASURED: pIC50

CC1(COCS(=O)(=O)c2ccc(OC/C(=C/F)CN)cc2)CCN(C(=O)C(C)(C)C)CC1 ... > 5.00
N#CC1(COCS(=O)(=O)c2ccc(OC/C(=C/F)CN)cc2)CCOCC1 ... < 4.52
COCC(COC)OCS(=O)(=O)c1ccc(OC/C(=C/F)CN)cc1 ... > 5.00
NC/C(=C\F)COc1ccc(S(=O)(=O)C[C@H]2CC[C@H](O)CC2)cc1 ... 4.52 to 5.00

Moving on to the next compound.
Memo: `NC/C(=C\F)COc1ccc(S(=O)(=O)C[C@H]2CCOC2)cc1` , reported pIC50: > 5.00
